target: recombinant his-tagged homotrimeric SARS-CoV-2 spike protein (SARS-CoV-2, UniProt P0DTC2 16-1211); test: flow cytometry, blocking of binding to hACE-2 cells
Reported percent blocking values are given for each entry in this list.

[
  {
    "binder": "1035433 (antibody, V domains shown) VH: QVQLQQSGPQLVRPGASVKISCKASGYSFTIYWMHWVQQRPGQGLEWIGMIDPSDSETRLNQKFKDKATLTVDKSSSTAYMQLSSPTSEDSAVYYCARRGDYNFDYWGQGTTLTVSS VL: DIVMTQAAPSVPATPGESVSISCRSSKSLLHSNGNTYLYWFLQRPGQSPQLLIFRMSNLASGVPDRFSGSGSGTAFTLRISRVEAEDVGVYYCMQHLEYPYTFGGGTKLEIK",
    "unit abbrev": "%",
    "percent blocking": 82.5
  },
  {
    "binder": "1035414 (antibody, V domains shown) VH: QVQLKQSGAELVRPGASVKLSCKTSGYIFTSYWIHWVKQRSGQGLEWIARIYPGTGNTYYNEKFKGKATLTADKSSTTAYMQLSSLKSEDSAVYFCARGEDNLYYYAMDYWGQGTSVTVSS VL: NIVLTQSPASLAVSLGQRATISCRASESVDSYGTSFMHWYQQKPGQPPKLLIYLASNLESGVPASFSGSGSRTDFTLTIDPVEADDAATYYCQQNNEDPWTFGGGTKLEIK",
    "unit abbrev": "%",
    "percent blocking": 51.4
  }
]
